# Test system: 769-P (renal cell carcinoma)
# protocol-details: MTT antiproliferative activity assay
# Format: cell-based, human
# assay-conditions: IC50 WS1 / IC50 769-P; 24 h
recorded-metric: TI after 24h
I only need the number, thanks.

// below: answered compounds
Query: Item O=S(=O)(NNC(=S)NC1CCCCC1)c1ccccc1 has what recorded TI after 24h?
Response: 22.712

Query: Item CCCCCCNC(=S)NNS(=O)(=O)c1ccccc1 has what recorded TI after 24h?
Response: 0.078

Now for a further compound.
Query: Item CNC(=S)NNS(=O)(=O)c1ccccc1 has what recorded TI after 24h?
Response: 1.653

* * *

# protocol-details: in vitro
# Format: cell-based, sheep
# assay-conditions: sheep
recorded-metric: hemolysis at 1 h, 2000 μg/mL (%)
Kindly answer with a numeric value in %, unit omitted.

Query: Item O=S(=O)(NNC(=S)NC1CCCCC1)c1ccccc1 has what recorded hemolysis at 1 h, 2000 μg/mL?
Response: 34.7

Query: Item CCCCCCNC(=S)NNS(=O)(=O)c1ccccc1 has what recorded hemolysis at 1 h, 2000 μg/mL?
Response: 85.8

Query: Item CCCCNC(=S)NNS(=O)(=O)c1ccccc1 has what recorded hemolysis at 1 h, 2000 μg/mL?
Response: 36.8

Now for a further molecule.
Query: Item CNC(=S)NNS(=O)(=O)c1ccccc1 has what recorded hemolysis at 1 h, 2000 μg/mL?
Response: 100
